- STUDY_SYSTEM: NRAS Q61K (Homo sapiens (Human), UniProt P01111+P62937, Q61K)
- Sequence (P01111 whole entry Q61K): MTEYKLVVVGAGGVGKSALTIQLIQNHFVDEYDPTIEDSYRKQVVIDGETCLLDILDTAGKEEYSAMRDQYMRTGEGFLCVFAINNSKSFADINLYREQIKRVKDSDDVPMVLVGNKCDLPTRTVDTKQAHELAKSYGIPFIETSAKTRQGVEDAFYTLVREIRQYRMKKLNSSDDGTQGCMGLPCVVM
- Sequence (P62937 whole entry): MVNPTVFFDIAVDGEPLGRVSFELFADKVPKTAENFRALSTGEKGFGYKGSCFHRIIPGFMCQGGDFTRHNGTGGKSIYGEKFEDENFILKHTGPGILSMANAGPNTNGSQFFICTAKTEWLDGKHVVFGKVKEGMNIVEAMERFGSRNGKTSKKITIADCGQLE
- ASSAY_OVERVIEW: Ras-Raf (BRAF RBD) disruption / FRET / MOA assay, NRAS Q61K
- Assay type: biochemical
- EXPERIMENTAL_SETUP: NRAS Q61K; Ras-Raf disruption/FRET/MOA assay; read-out: IC50* NRAS Q61K FRET data
- Experimental: The purpose of this biochemical assay is to measure the ability of test compounds to facilitate ternary complex formation between a nucleotide-loaded Ras isoform and cyclophilin A; the resulting ternary complex disrupts binding to a BRAF^RBD construct, inhibiting Ras signaling through a RAF effector. […]. Compound is present in plate wells as a 10-point 3-fold dilution series starting at a final concentration of 30 μM. […]
pIC50: −log10 of the molar value.
Examples of compounds with documented pIC50 follow.

| COMPOUND | pIC50 |
| --- | --- |
| CCn1c(-c2cccnc2[C@H](C)OC)c2c3cc(ccc31)-c1nc(nn1C)C[C@H](NC(=O)[C@@H](COC1CN(C(=O)C#CC(C)(C)N(C)C)C1)C(C)C)C(=O)N1CCC[C@H](N1)C(=O)OCC(C)(C)C2 (atropisomer, axis not shown) | 5.00 to 6.00 |
| C=CC(=O)N1CC[C@H](C(=O)N(C)[C@H](C(=O)N[C@H]2CC3=NC=C(O3)c3ccc4c(c3)c(c(-c3cccnc3[C@H](C)OC)n4CC)CC(C)(C)COC(=O)[C@@H]3CCCN(N3)C2=O)C(C)C)C1 (atropisomer, axis not shown) | 5.00 to 6.00 |
| C=CC(=O)N1CC[C@@]2(COCCN2C(=O)N(C)[C@H](C(=O)N[C@H]2Cc3nc(cs3)-c3ccc4c(c3)c(c(-c3cccnc3[C@H](C)OC)n4CC)CC(C)(C)COC(=O)[C@@H]3CCCN(N3)C2=O)C(C)C)C1 (atropisomer, axis not shown) | 6.00 to 7.00 |
| C=CC(=O)N1CC[C@H](C(=O)N(C)[C@H](C(=O)N[C@H]2Cc3cc(O)cc(c3)-c3ccc4c(c3)c(c(-c3cccc5c3COC5)n4CC)CC(C)(C)COC(=O)[C@@H]3CCCN(N3)C2=O)C(C)C)C1 | 5.00 to 6.00 |
| C=CC(=O)N1CC[C@@H]2[C@H](C1)CN2C(=O)N(C)[C@H](C(=O)N[C@H]1Cc2nc(cs2)-c2ccc3c(c2)c(c(-c2cccnc2[C@H](C)OC)n3CC)CC(C)(C)COC(=O)[C@@H]2CCCN(N2)C1=O)C(C)C (atropisomer, axis not shown) | 6.00 to 7.00 |
| CO[C@@H](C)c1ncccc1-c1c2c3nc(ccc3n1CC(F)(F)F)-c1cccc(c1)C[C@H](NC(=O)[C@@H](COC1CN(C(=O)C#CC(C)(C)N(C)C)C1)C(C)C)C(=O)N1CCC[C@H](N1)C(=O)OCC(C)(C)C2 (atropisomer, axis not shown) | < 5.00 |
| C=CC(=O)N1CC[C@@]2(C1)CN(C(=O)N(C)[C@H](C(=O)N[C@H]1Cc3nc(cs3)-c3ccc4c(c3)c(c(-c3cccnc3[C@H](C)OC)n4CC)CC(C)(C)COC(=O)[C@@H]3CCCN(N3)C1=O)C(C)C)CCO2 (atropisomer, axis not shown) | 7.00 to 8.00 |
| CCn1c(-c2cccnc2[C@H](C)OC)c2c3cc(ccc31)-c1cccc(c1)C[C@H](NC(=O)[C@H](C(C)C)N1CO[C@]3(CCN(C(=O)C#CC(C)(C)N4CCC4)C3)C1=O)C(=O)N1CCC[C@H](N1)C(=O)OCC(C)(C)C2 (atropisomer, axis not shown) | 5.00 to 6.00 |
